We begin with a simple list: items and their reported cytotoxicity at 70.5 h.
assay: Human HepG2 cell viability assay in 384 well format; assay type: toxicity, cell-based; parameters: dose 125 nL, time 70.5 hour; concentration not given beside the values; conditions: HepG2 cells, read-out: Inhibition
endpointLabel: cytotoxicity at 70.5 h (%)

[[record]]
compound = "CNC(=O)c1cccc(CC2COCCN(Cc3ccc(C)o3)C2)n1 (centres undefined)"
numericvalue = -2.79

[[record]]
compound = "O=C(c1ccc(F)cc1F)N1CCN(C(=O)C2CCCCC2)CC1"
numericvalue = -5.82

[[record]]
compound = "CCCSCC(=O)N1CCCC2(CCC(=O)N(CCc3c[nH]cn3)C2)C1 (centres undefined)"
numericvalue = -5.03

[[record]]
compound = "Cc1ncc(S(=O)(=O)N(CC(C)C)c2cccc(O)c2)s1"
numericvalue = -1.45

[[record]]
compound = "COCc1nc(N(C)C)ncc1C(=O)Nc1ccn(C)n1"
numericvalue = 5.17

[[record]]
compound = "Cc1occc1C(=O)N1CCC2(CCN(Cc3cccs3)C2)CC1"
numericvalue = -1.13

[[record]]
compound = "Cc1nn(C)c(C)c1CCNC(C)c1ccc(-n2ccnc2C)cc1 (centres undefined)"
numericvalue = -2.24

[[record]]
compound = "COCCC1CCCCN1Cc1nc(C2CC2)no1 (centres undefined)"
numericvalue = -9.77

[[record]]
compound = "COCC1COCCC12CCN(C(=O)Cc1ccc(F)cc1)CC2 (centres undefined)"
numericvalue = -16.1

[[record]]
compound = "Cc1nccn1CCN(C)C(=O)c1cn(CC2CCCCC2)nn1"
numericvalue = -25.4

[[record]]
compound = "NS(=O)(=O)N1CCc2ccc(NC(=O)CCc3ccncc3)cc21"
numericvalue = 22.2

[[record]]
compound = "CC(C)S(=O)(=O)CC(=O)N(Cc1ccsc1)c1ccccc1"
numericvalue = -7.19

[[record]]
compound = "COCC(=O)NCc1ccc(-c2ncncc2C(=O)N(C)C)cc1"
numericvalue = -2.25

[[record]]
compound = "CN(Cc1ccncc1)C(=O)Nc1cnn(CC(N)=O)c1"
numericvalue = -4.03

[[record]]
compound = "OC1CCN(Cc2cc3c(cc2Br)OCCO3)CC1"
numericvalue = 0.754

[[record]]
compound = "COc1cc(N2CC[C@@H]3O[C@@H](c4ccnc(C)n4)C[C@H]3C2)ncn1"
numericvalue = -4.55

[[record]]
compound = "CN1CCOC[C@H]1c1nc(-c2ccncc2)c[nH]1"
numericvalue = 1.37

[[record]]
compound = "O=C(NC1CCS(=O)(=O)C1)c1cc(Sc2ncccn2)ccn1 (centres undefined)"
numericvalue = -13.4

[[record]]
compound = "O=C(NS(=O)(=O)c1ccc(F)cc1)C1CCOc2ccccc21 (centres undefined)"
numericvalue = -3.97

[[record]]
compound = "c1cc(CNCC2CNc3ccnn3C2)cc(N2CCOCC2)n1 (centres undefined)"
numericvalue = -5.11

[[record]]
compound = "Cc1ccc(C2CCCN2S(=O)(=O)N(C)Cc2cnn(C)c2)o1 (centres undefined)"
numericvalue = 13.3

[[record]]
compound = "CCc1ccc(NC(=O)c2ncc(C(N)=O)cc2Cl)cc1F"
numericvalue = -107

[[record]]
compound = "N#CCCCS(=O)(=O)NC(=O)c1ccccc1F"
numericvalue = -0.732

[[record]]
compound = "N#Cc1ccc(NCC(=O)Nc2ncn(Cc3cccnc3)n2)cc1"
numericvalue = -6.44

[[record]]
compound = "Cc1nc(CN2C(=O)CCC23CCN(Cc2ccoc2)CC3)cs1"
numericvalue = -4.67

[[record]]
compound = "CC[C@@H](C)[C@H](NC(=O)Cn1ccc2c(Cl)cccc21)C(=O)O"
numericvalue = -13.9

[[record]]
compound = "CNC(=O)Cc1nc(CNc2ccc(SC)c(F)c2)cs1"
numericvalue = -0.256

[[record]]
compound = "CC(C)C(=O)NCCc1cc2nc(-c3ccncc3)ccn2n1"
numericvalue = -6.71

[[record]]
compound = "O=C(COc1cccc2c1CCC2=O)NCCSc1ccccc1"
numericvalue = 3.81

[[record]]
compound = "CN1CC(=O)N(C2CCC2)Cc2c(NC3CCNCC3)ncnc21"
numericvalue = -3.78

[[record]]
compound = "CCNc1ncc(C(=O)N2CCC(c3ccccc3C(=O)O)C2)cn1 (centres undefined)"
numericvalue = 2.76

[[record]]
compound = "NC(=O)c1nc2c(s1)CCN(Cc1ccccc1)CC2"
numericvalue = -2.47

[[record]]
compound = "CC(C)(C)C(=O)Cn1nc(-c2ccccc2F)ccc1=O"
numericvalue = -21.7

[[record]]
compound = "CCN(CCCNC(=O)c1cc2cccc(F)c2o1)S(C)(=O)=O"
numericvalue = -8.74

[[record]]
compound = "CN(C)c1cc(C(=O)N2CCN(S(C)(=O)=O)CC2)ccn1"
numericvalue = -1

[[record]]
compound = "N#Cc1ccc(CN2CCOCC2)cc1"
numericvalue = 2.27

[[record]]
compound = "OCCn1nnnc1Cc1ccc(Br)cc1"
numericvalue = -6.7

[[record]]
compound = "NC(=O)C1CCCN1c1cc(N2CCc3ccccc3C2)ncn1 (centres undefined)"
numericvalue = -5.82

[[record]]
compound = "Cc1ccc(N2CCC(c3cc(Cc4ccccc4)n[nH]3)CC2)nn1"
numericvalue = -9.6

[[record]]
compound = "CN1CCc2c(CNc3ncccn3)n[nH]c2C1"
numericvalue = 49.1

[[record]]
compound = "c1ccc(-c2cnc3n2CCNC32CCNCC2)cc1"
numericvalue = 43.5

[[record]]
compound = "Cc1cc(S(=O)(=O)N(CC(N)=O)CC(C)C)ccc1Br"
numericvalue = 11.4

[[record]]
compound = "CCC(O)CN1CCN(C(=O)CN(C)c2ccc(Cl)cn2)CC1 (centres undefined)"
numericvalue = -5.06

[[record]]
compound = "CN(CC1(O)CCCC1)C(=O)c1cccc(Nc2cnccn2)c1"
numericvalue = -19.5

[[record]]
compound = "CC(=O)NC1CCCN(C(=O)CNc2cc(Cl)cc(Cl)c2)C1 (centres undefined)"
numericvalue = -5.65

[[record]]
compound = "Cc1cc(C(=O)NC2CCCCNC2=O)c(=O)[nH]c1C (centres undefined)"
numericvalue = -6.38

[[record]]
compound = "CN1CCNCC(Cc2cnc3ccccc3c2)C1 (centres undefined)"
numericvalue = -3.02

[[record]]
compound = "O=C(O)CSC1CCc2ccccc2NC1=O (centres undefined)"
numericvalue = -14.7

[[record]]
compound = "O=C(c1cccs1)N1C[C@H]2CCC[C@@]2(COCC2CCOCC2)C1"
numericvalue = 23.2

